assay: Half life in dog; type: ADME, organism-based, Canis lupus familiaris; conditions: in vivo
property_label: half-life (h)
Answers are plain numbers, in h.

Recorded half-life for CC(C)(C)c1cc2c(cc1Cl)C=C(C(=O)O)[C@@H](C(F)(F)F)O2 [TIGEMOCOXIB] , please?
18

* * *

Target: Prostaglandin G/H synthase 2 (Homo sapiens)
Sequence (P35354 whole entry): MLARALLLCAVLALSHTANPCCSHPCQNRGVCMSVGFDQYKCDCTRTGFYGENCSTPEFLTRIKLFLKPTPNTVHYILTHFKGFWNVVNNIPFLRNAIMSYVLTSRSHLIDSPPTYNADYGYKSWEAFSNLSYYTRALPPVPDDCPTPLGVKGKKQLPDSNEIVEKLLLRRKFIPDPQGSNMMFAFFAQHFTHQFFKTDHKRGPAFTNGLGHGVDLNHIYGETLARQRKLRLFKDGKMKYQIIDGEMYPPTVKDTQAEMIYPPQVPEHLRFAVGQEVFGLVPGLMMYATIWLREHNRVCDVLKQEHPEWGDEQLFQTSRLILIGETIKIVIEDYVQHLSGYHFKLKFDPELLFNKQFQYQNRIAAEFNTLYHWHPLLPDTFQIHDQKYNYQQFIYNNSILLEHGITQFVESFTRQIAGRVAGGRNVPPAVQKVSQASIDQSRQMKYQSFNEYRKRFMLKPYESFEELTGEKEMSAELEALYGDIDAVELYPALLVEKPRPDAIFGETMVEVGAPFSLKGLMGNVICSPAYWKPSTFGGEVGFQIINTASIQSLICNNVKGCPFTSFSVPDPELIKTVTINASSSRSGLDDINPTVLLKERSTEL
pIC50: −log10 of the molar value.
Record form. Attribute: pIC50. Fill in for each entry.

Here are 3 compounds together with their reported answers.
compound	pIC50
O=C(O)C1=Cc2cc(Cl)c(OCC3CCCCC3)c(Cl)c2OC1C(F)(F)F (centres undefined)	> 7.47
CCOc1c(Cl)ccc2c1C=C(C(=O)O)C(C(F)(F)F)O2 (centres undefined)	< 4.00
O=C(O)C1=Cc2cc(Cl)c(OCC3CCCC3)c(Cl)c2OC1C(F)(F)F (centres undefined)	> 8.22

Let us move to another entry and its pIC50.
Recorded pIC50 for CC(C)(C)Oc1c(Cl)cc2c(c1Cl)OC(C(F)(F)F)C(C(=O)O)=C2 (centres undefined) , please?
> 7.55

Entry source: ChEMBL document CHEMBL1629461
